testTarget: USP9x (Homo sapiens)
Construct: Lysate labeling assay on untransfected cells; endogenous in cells; host or cells: K562
protocolNotes: HA-Ubiquitin-Vinylsulfone activity profiling in K562 lysates
Format: biochemical
conditionSummary: inhibition of USP9x in K562 lysates; data from FIG. 1; read-out: EC50
Binarize EC50 at 10 µM; below is Satisfied, at or above is Not satisfied.

INSERT INTO results (chemicalstring, testtarget, class) VALUES
  ('S=C=Nc1ccccc1', 'USP9x (Homo sapiens)', 'Not satisfied'),
  ('Fc1cccc(N=C=S)c1', 'USP9x (Homo sapiens)', 'Not satisfied'),
  ('CC(C)(C)OC(=O)NCc1cccc(N=C=S)c1', 'USP9x (Homo sapiens)', 'Satisfied'),
  ('Cc1cccc(N=C=S)c1', 'USP9x (Homo sapiens)', 'Not satisfied');

Q: Lab note: EC50 threshold 10 µM. Does this compound come in strictly under it? `N#Cc1cc(F)cc(N=C=S)c1`
Ans: Not satisfied

Q: Identify whether the compound `O=[N+]([O-])c1ccc(N=C=S)cc1` records EC50 below 10 µM.
Ans: Not satisfied

Q: In the record for `CC(C)(C)OC(=O)NCCc1ccc(N=C=S)cc1` , is EC50 less than 10 µM?
Ans: Not satisfied

Q: Please determine if `CC(C)(C)OC(=O)NCCc1cccc(N=C=S)c1` is below 10 µM in terms of EC50.
Ans: Satisfied

* * *

testTarget: USP9x (Homo sapiens)
Construct: Lysate labeling assay on untransfected cells; endogenous in cells; host or cells: K562
protocolNotes: HA-Ubiquitin-Vinylsulfone activity profiling in K562 lysates
Type: biochemical
conditionSummary: K562 treated with TU71 for 15 min, then HAUb-VS 15 min (FIG. 13); read-out: EC50 for USP9x inhibition
observable: EC50

Q: Item under review: `CC(C)(C)OC(=O)NCCc1cccc(N=C=S)c1` . Reported EC50?
Ans: 20 µM

* * *

Quick reference for pEC50 among some compounds
testTarget: USP9x (Homo sapiens, UniProt Q93008)
Construct: Lysate labeling assay on untransfected cells; endogenous in cells; host or cells: K562
Sequence (Q93008 whole entry): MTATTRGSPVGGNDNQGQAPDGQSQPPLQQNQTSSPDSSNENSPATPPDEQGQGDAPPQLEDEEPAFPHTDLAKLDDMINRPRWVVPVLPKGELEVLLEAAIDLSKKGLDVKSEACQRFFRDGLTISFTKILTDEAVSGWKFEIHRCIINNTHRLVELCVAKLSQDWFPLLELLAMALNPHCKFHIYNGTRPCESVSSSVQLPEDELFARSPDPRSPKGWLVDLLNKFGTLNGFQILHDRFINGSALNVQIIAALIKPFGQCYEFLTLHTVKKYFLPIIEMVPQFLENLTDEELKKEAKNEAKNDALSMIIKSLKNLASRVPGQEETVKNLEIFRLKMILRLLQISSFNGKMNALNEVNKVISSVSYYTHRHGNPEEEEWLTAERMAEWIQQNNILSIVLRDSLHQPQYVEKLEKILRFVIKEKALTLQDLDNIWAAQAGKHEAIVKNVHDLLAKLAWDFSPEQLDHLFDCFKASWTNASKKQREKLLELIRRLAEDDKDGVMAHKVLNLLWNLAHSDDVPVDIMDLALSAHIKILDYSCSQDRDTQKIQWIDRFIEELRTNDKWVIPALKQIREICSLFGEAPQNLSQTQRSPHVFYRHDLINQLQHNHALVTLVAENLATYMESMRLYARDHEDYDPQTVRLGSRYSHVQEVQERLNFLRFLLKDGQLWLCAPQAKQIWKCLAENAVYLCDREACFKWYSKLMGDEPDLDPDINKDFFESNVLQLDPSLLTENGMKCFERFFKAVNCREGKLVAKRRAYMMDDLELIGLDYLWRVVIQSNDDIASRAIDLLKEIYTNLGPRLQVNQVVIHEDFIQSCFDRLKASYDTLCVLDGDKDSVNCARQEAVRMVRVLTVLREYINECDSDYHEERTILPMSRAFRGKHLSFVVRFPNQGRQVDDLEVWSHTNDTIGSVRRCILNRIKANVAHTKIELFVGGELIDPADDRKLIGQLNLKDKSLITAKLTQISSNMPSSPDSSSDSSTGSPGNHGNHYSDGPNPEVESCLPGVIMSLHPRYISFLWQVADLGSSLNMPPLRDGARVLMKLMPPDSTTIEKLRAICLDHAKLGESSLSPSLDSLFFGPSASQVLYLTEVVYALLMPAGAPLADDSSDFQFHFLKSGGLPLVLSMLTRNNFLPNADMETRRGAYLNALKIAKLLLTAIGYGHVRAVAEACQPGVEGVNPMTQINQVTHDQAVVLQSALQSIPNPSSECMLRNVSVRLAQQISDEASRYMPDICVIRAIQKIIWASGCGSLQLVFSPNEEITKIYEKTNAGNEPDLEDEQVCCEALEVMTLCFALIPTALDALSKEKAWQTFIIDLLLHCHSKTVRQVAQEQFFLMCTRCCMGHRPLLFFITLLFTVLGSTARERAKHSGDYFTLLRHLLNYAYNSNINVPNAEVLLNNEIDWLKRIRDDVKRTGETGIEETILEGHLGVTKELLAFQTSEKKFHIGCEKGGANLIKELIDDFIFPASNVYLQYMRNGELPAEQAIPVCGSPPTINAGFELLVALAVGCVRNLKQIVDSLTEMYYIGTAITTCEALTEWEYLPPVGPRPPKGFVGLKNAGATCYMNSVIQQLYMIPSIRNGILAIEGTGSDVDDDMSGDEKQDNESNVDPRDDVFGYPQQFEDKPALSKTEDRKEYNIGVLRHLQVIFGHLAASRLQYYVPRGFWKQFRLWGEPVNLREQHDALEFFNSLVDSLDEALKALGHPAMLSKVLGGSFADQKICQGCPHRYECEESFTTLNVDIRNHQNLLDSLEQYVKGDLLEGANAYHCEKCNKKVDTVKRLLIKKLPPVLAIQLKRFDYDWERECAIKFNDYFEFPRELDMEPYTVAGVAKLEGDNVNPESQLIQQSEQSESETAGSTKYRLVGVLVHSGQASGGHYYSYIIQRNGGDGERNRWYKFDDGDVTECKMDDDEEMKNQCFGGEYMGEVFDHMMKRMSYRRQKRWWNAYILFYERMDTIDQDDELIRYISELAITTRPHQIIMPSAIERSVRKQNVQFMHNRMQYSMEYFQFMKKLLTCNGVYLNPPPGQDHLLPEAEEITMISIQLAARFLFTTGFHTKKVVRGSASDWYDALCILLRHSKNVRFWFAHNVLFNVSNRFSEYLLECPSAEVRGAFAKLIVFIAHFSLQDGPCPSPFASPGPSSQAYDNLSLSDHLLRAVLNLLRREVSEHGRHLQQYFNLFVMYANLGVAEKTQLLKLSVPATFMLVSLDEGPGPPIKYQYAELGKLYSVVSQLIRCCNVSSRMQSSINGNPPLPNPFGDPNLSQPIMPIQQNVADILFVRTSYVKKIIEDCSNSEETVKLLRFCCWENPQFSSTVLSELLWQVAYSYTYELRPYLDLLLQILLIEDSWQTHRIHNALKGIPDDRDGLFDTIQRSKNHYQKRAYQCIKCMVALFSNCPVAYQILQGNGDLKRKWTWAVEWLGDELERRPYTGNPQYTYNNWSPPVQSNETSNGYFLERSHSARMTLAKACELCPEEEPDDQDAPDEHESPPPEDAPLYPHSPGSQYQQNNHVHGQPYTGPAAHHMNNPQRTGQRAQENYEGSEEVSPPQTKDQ
protocolNotes: HA-Ubiquitin-Vinylsulfone activity profiling in K562 lysates
Assay type: biochemical
conditionSummary: HA-Ub-VS profiling, values in text; read-out: EC50 for USP9x
pEC50: −log10 of the molar value.

INSERT INTO measurements (compound, observable, reading) VALUES
  ('S=C=Nc1ccccc1', 'pEC50', '< 4.30'),
  ('CC(C)(C)OC(=O)NCCc1cccc(N=C=S)c1', 'pEC50', '4.92 to 5.22'),
  ('Cc1cccc(N=C=S)c1', 'pEC50', '< 4.30'),
  ('CCC[C@H](NC(=O)/C(C#N)=C/c1cccc(Br)n1)c1ccccc1 [WP1130, reference compound]', 'pEC50', 5.52),
  ('CC(C)(C)OC(=O)NCc1cccc(N=C=S)c1', 'pEC50', '4.92 to 5.22');

Q: Dear colleague, I am looking for the recorded pEC50 of the following compound: `CC(C)(C)OC(=O)NCCc1ccc(N=C=S)cc1`
Ans: 4.92 to 5.22

* * *

Readings of EC50 for the listed compounds
Tested on: B16-F10
protocolNotes: Proliferation assay, B16-F10
conditionSummary: Mus musculus, B16-F10, 72 h, read-out: EC50 growth inhibition B16-F10
State just the number; it will be interpreted in µM.

INSERT INTO assay_data (chemicalstring, testtarget, observable, reading) VALUES
  ('CC(C)(C)OC(=O)NCc1cccc(N=C=S)c1', 'B16-F10', 'EC50', 85);

From here, focus on the item given below.
Q: Quick check: EC50 of `CC(C)(C)OC(=O)NCCc1ccc(N=C=S)cc1` ?
Ans: 70

* * *

Tested on: 3T3
protocolNotes: Proliferation assay, 3T3
conditionSummary: read-out: EC50 3T3; WP1130, time not stated
observable: EC50
Record the result as number plus unit.

Q: Need EC50, item CCC[C@H](NC(=O)/C(C#N)=C/c1cccc(Br)n1)c1ccccc1 [WP1130, reference compound]
Ans: 3 µM

* * *

System: MCF7
protocolNotes: Proliferation assay, MCF7
conditionSummary: read-out: EC50 MCF7
observable: EC50 (nM)
Express the result in nM but write the number alone.

Q: Need EC50 of CCC[C@H](NC(=O)/C(C#N)=C/c1cccc(Br)n1)c1ccccc1 [WP1130, reference compound] , thanks.
Ans: 3000

* * *

System: Bcr-Abl
protocolNotes: Bcr-Abl immunoblot in BaF3/p210 cells
Assay type: cell-based, murine
conditionSummary: 4 h, unsonicated; read-out: EC50 for Bcr-Abl knockdown
observable: pEC50
Remember the convention: pEC50 equals -log10 of concentration in molar.

Q: Name the recorded pEC50 for CC(C)(C)OC(=O)NCCc1ccc(N=C=S)cc1 [TU46] .
Ans: 4.82
